Experiment: method code SF-HPLC, from DOI: 10.1081/jlc-100101463
Conditions: pH 12.0
MEASUREMENT TYPE: logD
Give the figure only, with no unit attached.

Measured logD, CC1CN(CC2CN=C(N)O2)CC(C)O1 (stereo not drawn) : 0.16

Measured logD, CC(C)N(CC1CN=C(N)O1)C(C)C (stereo not drawn) : 0.98

Measured logD, Cc1cc(C)cc(OCC2CN=C(N)O2)c1 (stereo not drawn) : 2.24

Source of measurements: the SangsterLogP compilation
